molecular target: MAGI2_3, Q86UL8; assay: holdup assay; parameters: key: below the threshold = too weak to quantify, mostly under pKd 3.1 to 4; settings: plain residues with an end cap or a label only (N-terminal biotin on a linker: ttds)
Sequence (Q86UL8 600-682): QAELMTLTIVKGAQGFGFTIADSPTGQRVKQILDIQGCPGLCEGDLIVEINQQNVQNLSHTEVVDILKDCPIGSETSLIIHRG
Consider the following binders; for each one, report its pKd.
One number for each entry.

{"Binder": "RSLEEEESQL [GRASP, Q7Z6J2]", "pKd": 3.65}

From here, focus on the item given below.
Give its pKd value. Item: SSRTRRETQL [HPV16-E6, P03126]
3.67
